IC50 for assorted compounds
target: human TRPA1 ion channel (Homo sapiens); construct: host or cells: HEK293; assay: Assay A: TRPA1 assay (FLIPR, AITC-induced calcium, HEK293 cells); assay type: cell-based; conditions: read-out: hTRPA1 IC50
Sequence (O75762 whole entry): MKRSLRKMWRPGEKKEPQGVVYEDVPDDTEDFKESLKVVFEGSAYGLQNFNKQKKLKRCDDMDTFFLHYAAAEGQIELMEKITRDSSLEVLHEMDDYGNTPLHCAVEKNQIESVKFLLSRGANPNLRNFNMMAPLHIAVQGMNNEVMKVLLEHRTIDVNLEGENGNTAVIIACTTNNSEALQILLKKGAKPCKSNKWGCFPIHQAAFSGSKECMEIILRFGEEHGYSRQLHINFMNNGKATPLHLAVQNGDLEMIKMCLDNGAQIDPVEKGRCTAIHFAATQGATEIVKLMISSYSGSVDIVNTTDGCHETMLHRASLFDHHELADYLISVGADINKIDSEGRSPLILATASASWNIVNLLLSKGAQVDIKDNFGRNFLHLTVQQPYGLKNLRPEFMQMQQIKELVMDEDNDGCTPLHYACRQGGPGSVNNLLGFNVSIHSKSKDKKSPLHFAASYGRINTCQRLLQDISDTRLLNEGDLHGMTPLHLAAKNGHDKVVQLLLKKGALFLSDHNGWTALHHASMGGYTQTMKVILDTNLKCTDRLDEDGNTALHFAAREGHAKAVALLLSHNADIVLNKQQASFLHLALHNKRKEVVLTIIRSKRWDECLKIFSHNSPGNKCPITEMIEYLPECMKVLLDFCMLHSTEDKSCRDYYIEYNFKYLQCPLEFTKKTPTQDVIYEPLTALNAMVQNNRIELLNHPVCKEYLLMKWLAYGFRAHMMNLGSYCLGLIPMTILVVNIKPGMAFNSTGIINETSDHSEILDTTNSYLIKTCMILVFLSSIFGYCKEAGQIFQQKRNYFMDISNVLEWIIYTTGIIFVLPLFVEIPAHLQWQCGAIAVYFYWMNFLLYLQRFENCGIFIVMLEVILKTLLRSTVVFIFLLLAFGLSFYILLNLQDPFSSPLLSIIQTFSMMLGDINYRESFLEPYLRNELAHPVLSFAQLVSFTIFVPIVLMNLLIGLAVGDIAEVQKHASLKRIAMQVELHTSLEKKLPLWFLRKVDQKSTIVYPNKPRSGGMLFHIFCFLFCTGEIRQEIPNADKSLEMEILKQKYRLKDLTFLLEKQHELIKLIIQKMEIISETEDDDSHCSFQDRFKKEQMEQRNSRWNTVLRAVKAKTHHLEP
Just the number please, in nM, no unit attached.

CN1CCOCC1CNC(=O)c1cn(Cc2nnn(C[C@H](O)c3ccc(Cl)cc3)n2)c(=O)n(C)c1=O (stereo partly shown); 43
CCn1c(=O)c(C(N)=O)cn(Cc2nnn(C[C@H](O)c3ccc(Cl)cc3)n2)c1=O; 62
Cn1c(=O)c(C(N)=O)cn(Cc2nnn(C[C@H](O)c3ccc(Br)cc3)n2)c1=O; 56
Cn1c(=O)c(C(=O)NCCOC(F)(F)F)cn(Cc2nnn(C[C@H](O)c3ccc(Cl)cc3)n2)c1=O; 44
Cc1ccc([C@@H](O)Cn2nnc(Cn3cc(C(N)=O)c(=O)n(C)c3=O)n2)cc1; 124

Given CC(C)Cn1c(=O)c(C(N)=O)cn(Cc2nnn(C[C@H](O)c3ccc(Cl)cc3)n2)c1=O , report its IC50 on human TRPA1 ion channel (Homo sapiens).
213

Given Cn1c(=O)c(C(N)=O)cn(Cc2nnn(C[C@H](O)c3cc4cccc(F)c4o3)n2)c1=O , report its IC50 on human TRPA1 ion channel (Homo sapiens).
198

###

assay: Assay B: Microsomal clearance; type: in vitro ADME, human; conditions: pooled liver microsomes 1 mg/ml, 1 μM compound, NADPH, 37° C.; clearance as % of hepatic blood flow
human LM [% Qh] for assorted molecules

Past entries and their recorded results:
Cn1c(=O)c(C(=O)NCC(F)(F)F)cn(Cc2nnn(C[C@H](O)c3ccc(Cl)cc3)n2)c1=O [Example 31]; <23 % Qh
Cn1c(=O)c(C(N)=O)cn(Cc2nnn(C[C@H](O)c3ccc4c(c3)OCO4)n2)c1=O [Example 11]; <23 % Qh
Cn1c(=O)c(C(N)=O)cn(Cc2nnn(C[C@H](O)c3ccc(C#N)s3)n2)c1=O [Example 14]; <23 % Qh

Please give the documented human LM [% Qh] of NC(=O)c1cn(Cc2nnn(C[C@H](O)c3ccc(Cl)cc3)n2)c(=O)n(CC2CC2)c1=O [Example 20]
<23 % Qh

Please give the documented human LM [% Qh] of Cc1ccc([C@@H](O)Cn2nnc(Cn3cc(C(N)=O)c(=O)n(C)c3=O)n2)cc1 [Example 13]
<23 % Qh

Please give the documented human LM [% Qh] of CCn1c(=O)c(C(N)=O)cn(Cc2nnn(C[C@H](O)c3ccc(Cl)cc3)n2)c1=O [Example 19]
<23 % Qh

Please give the documented human LM [% Qh] of CN1CCOCC1CNC(=O)c1cn(Cc2nnn(C[C@H](O)c3ccc(Cl)cc3)n2)c(=O)n(C)c1=O (stereo partly drawn) [Example 25]
55 % Qh

Please give the documented human LM [% Qh] of Cn1c(=O)c(C(N)=O)cn(Cc2nnn(C[C@H](O)c3cc4cc(F)ccc4o3)n2)c1=O [Example 8]
<23 % Qh

Please give the documented human LM [% Qh] of Cn1c(=O)c(C(=O)NCCn2ccnc2)cn(Cc2nnn(C[C@H](O)c3ccc(Cl)cc3)n2)c1=O [Example 29]
53 % Qh

Please give the documented human LM [% Qh] of Cn1c(=O)c(C(N)=O)cn(Cc2nnn(C[C@H](O)c3cc4ccc(F)cc4o3)n2)c1=O [Example 12]
<23 % Qh

Please give the documented human LM [% Qh] of Cn1c(=O)c(C(N)=O)cn(Cc2nnn(C[C@H](O)c3cc4ccccc4o3)n2)c1=O [Example 9]
<23 % Qh
